# Ki measurements, system: Metabotropic glutamate receptor 5 (Homo sapiens)
# Sequence (P41594 whole entry): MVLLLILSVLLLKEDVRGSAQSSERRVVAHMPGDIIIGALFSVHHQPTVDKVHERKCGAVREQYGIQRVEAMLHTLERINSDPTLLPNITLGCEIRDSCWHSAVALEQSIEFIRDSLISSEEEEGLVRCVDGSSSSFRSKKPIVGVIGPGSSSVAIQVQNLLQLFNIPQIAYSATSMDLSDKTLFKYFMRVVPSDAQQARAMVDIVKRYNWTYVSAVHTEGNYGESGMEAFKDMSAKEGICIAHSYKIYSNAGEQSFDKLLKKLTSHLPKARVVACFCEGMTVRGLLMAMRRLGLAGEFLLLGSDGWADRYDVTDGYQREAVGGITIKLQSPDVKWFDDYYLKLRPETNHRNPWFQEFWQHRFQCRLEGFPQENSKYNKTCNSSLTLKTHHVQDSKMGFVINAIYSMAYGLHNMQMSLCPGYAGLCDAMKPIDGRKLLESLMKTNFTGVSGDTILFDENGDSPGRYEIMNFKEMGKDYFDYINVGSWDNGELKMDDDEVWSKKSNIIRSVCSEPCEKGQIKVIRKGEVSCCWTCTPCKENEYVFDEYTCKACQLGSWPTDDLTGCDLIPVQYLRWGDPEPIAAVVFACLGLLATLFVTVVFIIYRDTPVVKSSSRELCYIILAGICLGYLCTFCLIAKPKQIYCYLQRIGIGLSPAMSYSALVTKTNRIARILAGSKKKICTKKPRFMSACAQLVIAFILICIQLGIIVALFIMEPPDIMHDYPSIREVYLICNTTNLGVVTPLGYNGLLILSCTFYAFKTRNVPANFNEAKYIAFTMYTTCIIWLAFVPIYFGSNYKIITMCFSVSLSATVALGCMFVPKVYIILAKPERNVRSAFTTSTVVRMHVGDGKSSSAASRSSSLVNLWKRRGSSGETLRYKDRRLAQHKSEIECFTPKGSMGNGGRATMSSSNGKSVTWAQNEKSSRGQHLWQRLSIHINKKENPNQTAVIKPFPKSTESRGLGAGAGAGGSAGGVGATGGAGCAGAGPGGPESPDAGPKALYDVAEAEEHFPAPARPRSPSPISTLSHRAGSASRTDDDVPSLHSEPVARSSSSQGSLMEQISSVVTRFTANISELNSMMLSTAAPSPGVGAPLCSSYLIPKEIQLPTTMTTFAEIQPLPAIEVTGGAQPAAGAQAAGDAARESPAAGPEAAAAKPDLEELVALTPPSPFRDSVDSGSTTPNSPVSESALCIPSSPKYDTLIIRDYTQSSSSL
Field format: number, assumed µM, no unit text.

>  <compound>
CN1CC(=O)N=C1NC(=O)Nc1cccc(Cl)c1 [FENOBAM ANHYDROUS]

>  <endpoint label>
Ki

>  <value measured>
0.033

$$$$

Item "Cc1ccc(-n2nc(C)c3conc3c2=O)cc1" has what recorded Ki?
1.88

###

Property: inhibition; scope: individual molecules
# system under test: Metabotropic glutamate receptor 2 (Homo sapiens) (UniProt Q14416)
# Sequence (Q14416 19-872 limits assumed): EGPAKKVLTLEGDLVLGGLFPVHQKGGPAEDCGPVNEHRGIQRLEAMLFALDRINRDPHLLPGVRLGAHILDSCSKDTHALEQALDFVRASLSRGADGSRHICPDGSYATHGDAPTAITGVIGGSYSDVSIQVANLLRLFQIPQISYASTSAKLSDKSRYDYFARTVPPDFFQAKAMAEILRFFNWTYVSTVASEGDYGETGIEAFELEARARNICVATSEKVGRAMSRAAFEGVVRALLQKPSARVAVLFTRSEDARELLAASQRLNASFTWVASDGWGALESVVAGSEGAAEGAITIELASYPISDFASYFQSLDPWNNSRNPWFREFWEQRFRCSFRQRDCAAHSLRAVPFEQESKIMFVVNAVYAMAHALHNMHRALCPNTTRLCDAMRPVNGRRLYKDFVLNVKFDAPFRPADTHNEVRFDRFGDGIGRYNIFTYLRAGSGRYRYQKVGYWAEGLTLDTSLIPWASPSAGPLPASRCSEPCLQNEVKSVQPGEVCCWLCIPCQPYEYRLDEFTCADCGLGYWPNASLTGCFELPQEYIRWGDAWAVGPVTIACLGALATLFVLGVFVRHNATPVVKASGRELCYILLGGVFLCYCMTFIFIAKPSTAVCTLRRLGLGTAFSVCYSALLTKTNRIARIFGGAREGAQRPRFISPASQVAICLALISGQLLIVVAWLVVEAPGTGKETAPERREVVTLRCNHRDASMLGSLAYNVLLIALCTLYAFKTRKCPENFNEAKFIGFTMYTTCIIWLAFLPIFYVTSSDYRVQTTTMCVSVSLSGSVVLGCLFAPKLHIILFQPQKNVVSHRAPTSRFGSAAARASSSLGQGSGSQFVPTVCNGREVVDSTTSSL
# method: Antagonist activity at Gi-coupled mGluR2 (unknown origin) expressed in CHO cells assessed as decrease in glutamate-induced inhibition of forskolin-stimulated cAMP accumulation after 1 hr by glosensor based luciferase reporter gene assay relative to control
# Type: functional, cell-based
# Set-up: concentration or dose not given beside the values
# condition details: concentration not given here
Answer with a number only, understood to be in %.

Recorded inhibition, per entry:
>  <chemical structure>
Cc1nn(-c2ccc([N+](=O)[O-])cc2)c(=O)c2nocc12

>  <system under test>
Metabotropic glutamate receptor 2 (Homo sapiens) (UniProt Q14416)

>  <inhibition / %>
5

$$$$
>  <chemical structure>
Cc1nn(-c2cc(Cl)cc(Cl)c2)c(=O)c2nocc12

>  <system under test>
Metabotropic glutamate receptor 2 (Homo sapiens) (UniProt Q14416)

>  <inhibition / %>
11

$$$$
>  <chemical structure>
Cc1nn(-c2cc(C(F)(F)F)cc(C(F)(F)F)c2)c(=O)c2nocc12

>  <system under test>
Metabotropic glutamate receptor 2 (Homo sapiens) (UniProt Q14416)

>  <inhibition / %>
0

$$$$
>  <chemical structure>
Cc1nn(-c2cccc([N+](=O)[O-])c2)c(=O)c2nocc12

>  <system under test>
Metabotropic glutamate receptor 2 (Homo sapiens) (UniProt Q14416)

>  <inhibition / %>
48

$$$$

Notebook: pull reported inhibition for Metabotropic glutamate receptor 2 (Homo sapiens) (UniProt Q14416), entry "Cc1nn(-c2ccc(F)cc2)c(=O)c2nocc12"
23

###

# Species on record: Homo sapiens
# method: Displacement of muscimol from GABA-A receptor (unknown origin) after 90 mins by liquid scintillation counting method
# Set-up: concentration or dose not given beside the values
endpoint label: inhibition (%)
Please reply with the bare figure in % and do not write the unit itself.

Record excerpt, results attached:
>  <chemical structure>
Cc1nn(-c2cc(Cl)cc(Cl)c2)c(=O)c2nocc12

>  <inhibition / %>
-7.8

$$$$
>  <chemical structure>
Cc1nn(-c2ccc(F)cc2)c(=O)c2nocc12

>  <inhibition / %>
-6

$$$$

Item under review: "Cc1nn(-c2cc(C(F)(F)F)cc(C(F)(F)F)c2)c(=O)c2nocc12" . Reported inhibition?
-7.2

Tell me the measured inhibition of "Cc1nn(-c2ccccc2)c(=O)c2nocc12" , please.
-6

Query (compound): "Cc1nn(-c2ccc([N+](=O)[O-])cc2)c(=O)c2nocc12" ; field requested: inhibition
-4.7

What value of inhibition has been reported for the following compound? "Cc1nn(-c2ccc(F)cc2F)c(=O)c2nocc12"
-10

###

# system under test: UniProt:Q14833
# Sequence (Q14833 whole entry): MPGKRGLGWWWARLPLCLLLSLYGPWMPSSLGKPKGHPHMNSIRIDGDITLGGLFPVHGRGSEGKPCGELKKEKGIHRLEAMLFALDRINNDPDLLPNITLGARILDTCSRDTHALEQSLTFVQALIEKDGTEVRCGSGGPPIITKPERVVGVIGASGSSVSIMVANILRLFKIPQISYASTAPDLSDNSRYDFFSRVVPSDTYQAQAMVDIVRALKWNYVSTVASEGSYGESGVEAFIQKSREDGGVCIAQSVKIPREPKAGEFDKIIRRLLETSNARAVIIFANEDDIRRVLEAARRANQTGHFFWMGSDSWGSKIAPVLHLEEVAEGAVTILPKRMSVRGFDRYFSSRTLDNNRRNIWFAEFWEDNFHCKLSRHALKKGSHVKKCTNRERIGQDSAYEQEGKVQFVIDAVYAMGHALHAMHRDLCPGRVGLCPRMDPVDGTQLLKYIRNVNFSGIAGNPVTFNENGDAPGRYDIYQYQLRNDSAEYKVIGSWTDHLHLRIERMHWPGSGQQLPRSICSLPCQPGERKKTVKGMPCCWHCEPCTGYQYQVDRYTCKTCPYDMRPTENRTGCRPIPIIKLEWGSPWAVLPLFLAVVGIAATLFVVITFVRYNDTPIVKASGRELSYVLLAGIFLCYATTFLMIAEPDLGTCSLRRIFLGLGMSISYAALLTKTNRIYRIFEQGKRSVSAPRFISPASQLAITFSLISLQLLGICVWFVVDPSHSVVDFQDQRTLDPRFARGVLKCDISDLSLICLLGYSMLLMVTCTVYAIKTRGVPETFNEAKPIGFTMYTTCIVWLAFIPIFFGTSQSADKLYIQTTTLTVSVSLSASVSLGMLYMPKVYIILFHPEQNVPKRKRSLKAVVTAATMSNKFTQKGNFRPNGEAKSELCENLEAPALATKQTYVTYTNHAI
# method: Antagonist activity at Gi-coupled mGluR4 (unknown origin) expressed in CHO cells assessed as decrease in glutamate-induced inhibition of forskolin-stimulated cAMP accumulation after 1 hr by glosensor based luciferase reporter gene assay relative to control
# Assay type: functional, cell-based
# Design: concentration or dose not given beside the values
# condition details: concentration not given here
endpoint label: inhibition (%)
# value in %; strip the unit string

Would you please look over these solved cases?
>  <chemical structure>
Cc1nn(-c2ccc(F)cc2F)c(=O)c2nocc12

>  <value measured>
-7

$$$$
>  <chemical structure>
Cc1ccc(-n2nc(C)c3conc3c2=O)cc1

>  <value measured>
-9

$$$$
>  <chemical structure>
COc1ccc(-n2nc(C)c3conc3c2=O)cc1

>  <value measured>
9

$$$$
>  <chemical structure>
Cc1nn(-c2cccc([N+](=O)[O-])c2)c(=O)c2nocc12

>  <value measured>
-10

$$$$
>  <chemical structure>
Cc1nn(-c2ccc([N+](=O)[O-])cc2)c(=O)c2nocc12

>  <value measured>
-3

$$$$
>  <chemical structure>
Cc1nn(-c2cc(Cl)cc(Cl)c2)c(=O)c2nocc12

>  <value measured>
-6

$$$$
>  <chemical structure>
Cc1nn(-c2ccc(F)cc2)c(=O)c2nocc12

>  <value measured>
3

$$$$
>  <chemical structure>
Cc1nn(-c2cc(C(F)(F)F)cc(C(F)(F)F)c2)c(=O)c2nocc12

>  <value measured>
11

$$$$

Param readout = inhibition; param system = UniProt:Q14833; param query = "Cc1nn(-c2ccccc2)c(=O)c2nocc12" ; response: value
-5

###

# system under test: Metabotropic glutamate receptor 5 (Homo sapiens)
Measured Ki by item

>  <chemical structure>
COc1ccc(-n2nc(C)c3conc3c2=O)cc1

>  <endpoint label>
Ki

>  <value measured>
> 10 µM

$$$$
>  <chemical structure>
Cc1nn(-c2ccc([N+](=O)[O-])cc2)c(=O)c2nocc12

>  <endpoint label>
Ki

>  <value measured>
> 10 µM

$$$$

Turning to the following compound.
Recorded Ki for "Cc1nn(-c2ccccc2)c(=O)c2nocc12" , please?
> 10 µM

Ref: ChEMBL document CHEMBL4152351
